target: c-Kit(V654A) (Homo sapiens, UniProt P10721, V654A); assay: c-Kit(V654A) assay; type: biochemical; settings: Table 1; 200 μM ATP

molecule: COCCOc1cc2[nH]nc(-c3cc(-c4ccc(C(=O)N5CCC6(CCOC6)C5)cc4)no3)c2cc1F (centres unmarked)
IC50 [nM]: 0.44

molecule: COCCOc1ccc2c(-c3cc(-c4ccc(C(=O)N5CCC[C@@H]5C(C)(C)O)cc4)no3)n[nH]c2c1
IC50 [nM]: 4.8

molecule: COCCOc1cc2[nH]nc(-c3cc(-c4cnn(C)c4)no3)c2cc1F
IC50 [nM]: 7.6

molecule: COCCOc1cc2[nH]nc(-c3cc(-c4ccc(C(=O)N5CCC56COC6)c(C)c4)no3)c2cc1F
IC50 [nM]: 1.2

molecule: COCCOc1cc2[nH]nc(-c3cc(-c4ccc(C(=O)N5CC(N6CCOCC6)C5)cc4)no3)c2cc1F
IC50 [nM]: 1.4

molecule: COCCOc1cc2[nH]nc(-c3cc(-c4ccc(C(=O)N5Cc6ccncc6C5)cc4)no3)c2cc1F
IC50 [nM]: 0.55

molecule: COCCOc1cc2[nH]nc(-c3cc(-c4ccc(N5CC[S+]([O-])CC5)nc4)no3)c2cc1F
IC50 [nM]: 1.6

molecule: COCCOc1cc2[nH]nc(-c3cc(-c4ccc(C(=O)N5CCOCC5)cc4)on3)c2cc1F
IC50 [nM]: 2.2

Data origin: patent US20260042753A1
